System: Human betaherpesvirus 5
Method description: Inhibitory concentration against human cytomegalovirus (CMV) in cultured human foreskin fibroblast (HFF) cells
Format: functional, organism-based
Particulars: Human betaherpesvirus 5, HFF
Measured IC50, listed per entry.

1) O=C(Nc1ccc(/N=C(\S)Nc2cc(C(F)(F)F)cc(C(F)(F)F)c2)cc1)c1csnn1	0.02 µg/mL
2) O=C(Nc1ccc(/N=C(\S)Nc2cc(C(F)(F)F)cc(C(F)(F)F)c2)cc1)c1cscn1	0.008 µg/mL
3) O=C(Nc1ccc(/N=C(\S)Nc2cccc(C(F)(F)F)c2)cc1)c1ccco1	0.06 µg/mL
4) COc1cc(OC)c(N/C(S)=N/c2ccc(NC(=O)c3ccco3)c(C)c2)cc1Cl	> 10 µg/mL
5) COc1cc(OC)c(N/C(S)=N/c2ccc(NC(=O)c3ccco3)cc2C#N)cc1Cl	> 10 µg/mL

// fetch IC50 for `COc1cc(OC)c(N/C(S)=N/c2ccc(NC(=O)c3ccco3)cc2C(F)(F)F)cc1Cl` ; system: Human betaherpesvirus 5
2 µg/mL

// fetch IC50 for `O=C(Nc1ccc(/N=C(\S)Nc2cc(C(F)(F)F)cc(C(F)(F)F)c2)cc1)c1cocn1` ; system: Human betaherpesvirus 5
0.03 µg/mL

// fetch IC50 for `COc1cc(OC)c(N/C(S)=N/c2ccc(NC(C)=O)cc2)cc1Cl` ; system: Human betaherpesvirus 5
45 µg/mL

// fetch IC50 for `O=C(Nc1ccc(/N=C(\S)Nc2ccc(C(F)(F)F)c(Cl)c2)cc1)c1cscn1` ; system: Human betaherpesvirus 5
0.006 µg/mL

Numbers sourced from ChEMBL document CHEMBL1136189.
